Tested on: SK-MEL-5
measurementProtocol: Compound was tested in vitro for growth inhibition of SK-MEL-5 cells derived from human melanoma.
Assay type: functional
readoutType: GI50 (nM)
# output: bare number, implied unit nM

Q: Which GI50 is listed for CN(C)c1ccc(NS(=O)(=O)c2c(F)c(F)c(F)c(F)c2F)cc1 ?
A: 183

Q: Entry O=S(=O)(Nc1ccc2[nH]ccc2c1)c1c(F)c(F)c(F)c(F)c1F : reported GI50 = ?
A: 13

Q: Which value of GI50 has been reported for O=S(=O)(Nc1ccc2c(c1)OCCO2)c1c(F)c(F)c(F)c(F)c1F in the records?
A: 20

Q: Recorded GI50 of COc1ccc(NS(=O)(=O)c2ccc(F)c(F)c2F)cc1 , please.
A: 1000

Q: Name the recorded GI50 for Cc1ccc(NS(=O)(=O)c2c(F)c(F)c(F)c(F)c2F)cc1C .
A: 151
